Test system: Enterococcus sp.
Experiment: In vitro antibacterial evaluation: minimum inhibitory concentration (MIC), broth dilution method
Type: cell-based
Settings: strain ATCC 29212
readout_type: MIC Enterococcus faecalis (ATCC 29212) (µg/mL)

[[record]]
molecule = "CSc1ccc(C2OCC3OC(OC4C(CO)OC(Oc5ccc(CC6NC(=O)C(C(C)c7ccccc7)NC(=O)CNC(=O)C(CO)NC(=O)C(C(O)C7CNC(=N)N7C7OC(CO)C(O)C(O)C7O)NC(=O)C(C(O)C7CNC(=N)N7)NC6=O)cc5)C(O)C4O)C(O)C(O)C3O2)cc1 (stereo not shown)"
readout_type = "MIC Enterococcus faecalis (ATCC 29212)"
relation_sign = "="
test_result = 2

[[record]]
molecule = "CCCCCCC(=O)OCC1OC(OC2C(CO)OC(Oc3ccc(CC4NC(=O)C(C(C)c5ccccc5)NC(=O)CNC(=O)C(CO)NC(=O)C(C(O)C5CNC(=N)N5C5OC(CO)C(O)C(O)C5O)NC(=O)C(C(O)C5CNC(=N)N5)NC4=O)cc3)C(O)C2O)C(O)C(O)C1O (stereo not shown) [Example 97b]"
readout_type = "MIC Enterococcus faecalis (ATCC 29212)"
relation_sign = "="
test_result = 4

[[record]]
molecule = "CC(C)=CCCC(C)=CCN=C1NCC(C(O)C2NC(=O)C(C(O)C3CNC(=N)N3)NC(=O)C(Cc3ccc(OC4OC(CO)C(OC5OC6COC7(OC6C(O)C5O)C5CC6CC(C5)CC7C6)C(O)C4O)cc3)NC(=O)C(C(C)c3ccccc3)NC(=O)CNC(=O)C(CO)NC2=O)N1C1OC(CO)C(O)C(O)C1O (stereo not shown)"
readout_type = "MIC Enterococcus faecalis (ATCC 29212)"
relation_sign = "="
test_result = 16

[[record]]
molecule = "Cc1ccc(Oc2ccc(C3OCC4OC(OC5C(CO)OC(Oc6ccc(CC7NC(=O)C(C(C)c8ccccc8)NC(=O)CNC(=O)C(CO)NC(=O)C(C(O)C8CNC(=N)N8C8OC(CO)C(O)C(O)C8O)NC(=O)C(C(O)C8CNC(=N)N8)NC7=O)cc6)C(O)C5O)C(O)C(O)C4O3)cc2)cc1 (stereo not shown)"
readout_type = "MIC Enterococcus faecalis (ATCC 29212)"
relation_sign = "="
test_result = 2

[[record]]
molecule = "CC(c1ccccc1)C1NC(=O)CNC(=O)C(CO)NC(=O)C(C(O)C2CNC(=N)N2C2OC(CO)C(O)C(O)C2O)NC(=O)C(C(O)C2CNC(=N)N2)NC(=O)C(Cc2ccc(OC3OC(CO)C(OC4OC5COC(c6ccc(C(=O)O)cc6)OC5C(O)C4O)C(O)C3O)cc2)NC1=O (stereo not shown)"
readout_type = "MIC Enterococcus faecalis (ATCC 29212)"
relation_sign = ">"
test_result = 64

[[record]]
molecule = "COc1cccc(C2OC3C(OC4C(CO)OC(Oc5ccc(CC6NC(=O)C(C(C)c7ccccc7)NC(=O)CNC(=O)C(CO)NC(=O)C(C(O)C7CNC(=N)N7C7OC(CO)C(O)C(O)C7O)NC(=O)C(C(O)C7CNC(=N)N7)NC6=O)cc5)C(O)C4O)OC(CO)C(O)C3O2)c1 (single isomer, unassigned) [Example 137b]"
readout_type = "MIC Enterococcus faecalis (ATCC 29212)"
relation_sign = "="
test_result = 32

[[record]]
molecule = "CC(c1ccccc1)C1NC(=O)CNC(=O)C(CO)NC(=O)C(C(O)C2CN(c3nc4ccccc4s3)C(=N)N2C2OC(CO)C(O)C(O)C2O)NC(=O)C(C(O)C2CNC(=Nc3nc4ccccc4s3)N2)NC(=O)C(Cc2ccc(OC3OC(CO)C(OC4OC(CO)C(O)C(O)C4O)C(O)C3O)cc2)NC1=O (stereo not shown)"
readout_type = "MIC Enterococcus faecalis (ATCC 29212)"
relation_sign = ">"
test_result = 64


* * *

Reported MIC Enterococcus faecalis (GC 4553) values are given for each entry in this list.
System: Enterococcus sp.
Assay: In vitro antibacterial evaluation: minimum inhibitory concentration (MIC), broth dilution method
Type: cell-based
Settings: Enterococcus faecalis (GC 4553); broth dilution, 18 hours at 35° C.
readout_type: MIC Enterococcus faecalis (GC 4553) (µg/mL)

[[record]]
compound = "CC(c1ccccc1)C1NC(=O)CNC(=O)C(CO)NC(=O)C(C(O)C2CNC(=N)N2C2OC(CO)C(O)C(O)C2O)NC(=O)C(C(O)C2CNC(=N)N2)NC(=O)C(Cc2ccc3oc(SCC(=O)c4ccc(Cl)cc4)nc3c2)NC1=O (centres unmarked)"
subject_of_test = "Enterococcus sp."
test_result = 4

[[record]]
compound = "COc1cc(-c2nc3cc(CC4NC(=O)C(C(C)c5ccccc5)NC(=O)CNC(=O)C(CO)NC(=O)C(C(O)C5CNC(=N)N5C5OC(CO)C(O)C(O)C5O)NC(=O)C(C(O)C5CNC(=N)N5)NC4=O)ccc3o2)cc(OC)c1OC (centres unmarked)"
subject_of_test = "Enterococcus sp."
test_result = 32


* * *

Reported MIC Coagulase Negative Staphylococcus (GC 6257) values are given for each entry in this list.
Test system: Staphylococcus sp.
Assay: In vitro antibacterial evaluation: minimum inhibitory concentration (MIC), broth dilution method
Type: cell-based
Details: strain GC 6257
readout_type: MIC Coagulase Negative Staphylococcus (GC 6257)

[[record]]
compound = "CC(c1ccccc1)C1NC(=O)CNC(=O)C(CO)NC(=O)C(C(O)C2CNC(=N)N2C2OC(CO)C(O)C(O)C2O)NC(=O)C(C(O)C2CNC(=N)N2)NC(=O)C(Cc2ccc(OC3OC(CO)C(OC4OC5COC(C6CCCC6)OC5C(O)C4O)C(O)C3O)cc2)NC1=O (stereo not shown) [Example 117]"
test_result = "0.5 µg/mL"

[[record]]
compound = "CC(c1ccccc1)C1NC(=O)CNC(=O)C(CO)NC(=O)C(C(O)C2CNC(=N)N2C2OC(CO)C(O)C(O)C2O)NC(=O)C(C(O)C2CNC(=N)N2)NC(=O)C(Cc2ccc(OC3OC(CO)C(OC4OC5COC(Cc6ccccc6)OC5C(O)C4O)C(O)C3O)cc2)NC1=O (stereo not shown) [Example 102]"
test_result = "0.5 µg/mL"

[[record]]
compound = "CC(c1ccccc1)C1NC(=O)CNC(=O)C(CO)NC(=O)C(C(O)C2CNC(=N)N2C2OC(CO)C(O)C(O)C2O)NC(=O)C(C(O)C2CNC(=N)N2)NC(=O)C(Cc2ccc(OC3OC(CO)C(OC4OC5COC(CC6CCCCC6)OC5C(O)C4O)C(O)C3O)cc2)NC1=O (stereo not shown) [Example 122]"
test_result = "1 µg/mL"

[[record]]
compound = "CC(C)=CCCC(C)=CCOc1ccc(C2OCC3OC(OC4C(CO)OC(Oc5ccc(CC6NC(=O)C(C(C)c7ccccc7)NC(=O)CNC(=O)C(CO)NC(=O)C(C(O)C7CNC(=N)N7C7OC(CO)C(O)C(O)C7O)NC(=O)C(C(O)C7CNC(=N)N7)NC6=O)cc5)C(O)C4O)C(O)C(O)C3O2)cc1 (stereo not shown) [Example 183]"
test_result = "2 µg/mL"

[[record]]
compound = "N=C1NCC(C(O)C2NC(=O)C(Cc3ccc(OC4OC(CO)C(OC5OC6COC7(OC6C(O)C5O)C5CC6CC(C5)CC7C6)C(O)C4O)cc3)NC(=O)C(CC3CCCCC3)NC(=O)CNC(=O)C(CO)NC(=O)C(C(O)C3CNC(=N)N3C3OC(CO)C(O)C(O)C3O)NC2=O)N1 (stereo not shown) [Example 106]"
test_result = "0.25 µg/mL"

[[record]]
compound = "COc1ccc2cc(C3OCC4OC(OC5C(CO)OC(Oc6ccc(CC7NC(=O)C(C(C)c8ccccc8)NC(=O)CNC(=O)C(CO)NC(=O)C(CC8CNC(=N)N8C8OC(CO)C(O)C(O)C8O)NC(=O)C(CC8CNC(=N)N8)NC7=O)cc6)C(O)C5O)C(O)C(O)C4O3)ccc2c1 (stereo not shown) [Example 190]"
test_result = "8 µg/mL"

[[record]]
compound = "Cc1ccc(Oc2cccc(C3OCC4OC(OC5C(CO)OC(Oc6ccc(CC7NC(=O)C(C(C)c8ccccc8)NC(=O)CNC(=O)C(CO)NC(=O)C(C(O)C8CNC(=N)N8C8OC(CO)C(O)C(O)C8O)NC(=O)C(C(O)C8CNC(=N)N8)NC7=O)cc6I)C(O)C5O)C(O)C(O)C4O3)c2)cc1 (stereo not shown) [Example 197]"
test_result = "4 µg/mL"


* * *

System: Enterococcus sp.
Test: In vitro antibacterial evaluation: minimum inhibitory concentration (MIC), broth dilution method
Assay type: cell-based
Conditions: broth dilution, inoculum 5×10^5 CFU/mL, 18 hours at 35° C.
Description: […]
readout_type: MIC Enterococcus faecium (GC 4557) (µg/mL)

[[record]]
compound = "N=C1NCC(C(O)C2NC(=O)C(Cc3ccc(OC4OC(CO)C(OC5OC6COC(CCc7ccccc7)OC6C(O)C5O)C(O)C4O)cc3)NC(=O)C(CC3CCCCC3)NC(=O)CNC(=O)C(CO)NC(=O)C(C(O)C3CNC(=N)N3C3OC(CO)C(O)C(O)C3O)NC2=O)N1 (stereo not shown) [Example 198]"
measure_unit = "µg/mL"
test_result = 1

[[record]]
compound = "COc1ccc2cc(COCC3OC(OC4C(CO)OC(Oc5ccc(CC6NC(=O)C(C(C)c7ccccc7)NC(=O)CNC(=O)C(CO)NC(=O)C(C(O)C7CNC(=N)N7C7OC(CO)C(O)C(O)C7O)NC(=O)C(C(O)C7CNC(=N)N7)NC6=O)cc5)C(O)C4O)C(O)C(O)C3O)ccc2c1 (stereo not shown) [Example 230]"
measure_unit = "µg/mL"
test_result = 2

[[record]]
compound = "CC(c1ccccc1)C1NC(=O)CNC(=O)C(CO)NC(=O)C(C(O)C2CN(Cc3ccc(C(F)(F)F)cc3)C(=N)N2C2OC(CO)C(O)C(O)C2O)NC(=O)C(C(O)C2CNC(=N)N2)NC(=O)C(Cc2ccc(OC3OC(CO)C(OC4OC5COC6(OC5C(O)C4O)C4CC5CC(C4)CC6C5)C(O)C3O)cc2)NC1=O (stereo not shown) [Example 226]"
measure_unit = "µg/mL"
test_result = 2

[[record]]
compound = "CC(c1ccccc1)C1NC(=O)CNC(=O)C(CO)NC(=O)C(C(O)C2CNC(=N)N2C2OC(CO)C(O)C(O)C2O)NC(=O)C(C(O)C2CNC(=N)N2)NC(=O)C(Cc2ccc(OC3OC(CO)C(OC4OC(CO)C(O)C5OC(c6ccc(-c7ccsc7)cc6)OC45)C(O)C3O)cc2)NC1=O (stereo not shown) [Example 164a]"
measure_unit = "µg/mL"
test_result = 4

